Biological target: human CD74, naturally expressed on cells (Raji, Daudi, M4A4, NCI-H747 cells; human tonsil tissue) (human) (UniProt P04233)
Assay: cell-based or functional assay
Recorded % kill of M4A4 cells at 10 µg/mL by entry
Expressed in %, but write only the number.

binder="HuMab-CD74-006-mcMMAF (antibody, IgG1, V domains shown, drug-linker mcMMAF alkylated to the cysteines of the reduced antibody (DAR 3.7-4.1), Antibody-drug conjugate of HuMab-CD74-006 (IgG1,kappa)) VH: QVQLVESGGGVVQPGRSLRLSCAASGFTFSSYAMHWVRQAPGKGLEWVAVISYDGSIKYYADSVKGRFTISRDNSKNTLYLQMNSLRVEDTAVFYCARGREITSQNIVILLDYWGQGTLVTVTS VL: DIQMTQSPSSLSASVGDRVTITCRASQGISSWLAWYQQKPEKAPKSLIYAASSLQSGVPSRFSGSGSGTDFTLTISSLQPEDFATYYCQQYNSYPLTFGGGTKVEIK" experimental_result=97

Here's the next entry for you.
Form: binder = HuMab-CD74-006-vcMMAE (antibody, IgG1, V domains shown, drug-linker vcMMAE alkylated to the cysteines of the reduced antibody (DAR 4.0), Antibody-drug conjugate of HuMab-CD74-006 (IgG1,kappa); also called vcMMAE-conjugated HuMab-CD74-006) VH: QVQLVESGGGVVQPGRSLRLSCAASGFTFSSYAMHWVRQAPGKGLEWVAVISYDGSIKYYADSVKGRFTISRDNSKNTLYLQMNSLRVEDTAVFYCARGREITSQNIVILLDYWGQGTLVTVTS VL: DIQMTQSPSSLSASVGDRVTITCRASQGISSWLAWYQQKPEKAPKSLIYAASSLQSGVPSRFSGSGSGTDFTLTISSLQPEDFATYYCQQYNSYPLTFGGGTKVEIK ; % kill of M4A4 cells at 10 µg/mL = 100
